The measured values listed here are drawn from ChEMBL document CHEMBL2218924.

Assay System: Tyrosine-protein kinase JAK3 (Homo sapiens)
Conditions: at 1 µM
Reported Property: residual activity (%)

> print(dat)
                             molecule.smiles  reading
 1           Nc1ncnc2[nH]nc(Nc3ccc(F)cc3)c12      101
 2         COc1cc2ncnc(Nc3cccc(Cl)c3)c2cc1OC      109
 3  O=C(CCCc1ccc(-c2ccccc2F)cc1)Nc1ccc(O)cc1      104
 4  CC(C)c1nn(-c2c(Cl)cccc2Cl)c2nc(Cc3ccc(OCCO)cc3)[nH]c(=O)c12      103
 5  COc1ccc2c(c1)c(C1=C(c3c[nH]c4ccccc34)C(=O)NC1=O)cn2CCCN(C)C      102
 6    O=C1NC(=O)c2c1c1c3ccccc3[nH]c1n1cncc21       83
 7  CC(C)(C)n1nc(Cc2cccc3ccccc23)c2c(N)ncnc21       99
 8  O=C1Cc2c([nH]c3ccc([N+](=O)[O-])cc23)-c2ccccc2N1      101
 9  N#C/C(=C1/Nc2ccccc2S1)c1ccnc(NCCc2cccnc2)n1       95
10  O=C1NC(=O)C(c2c[nH]c3ccccc23)=C1c1c[nH]c2ccccc12       43
11         O=C(O)/C=C/c1cc(Br)c(Br)c(Br)c1Br      102
12        CCCCc1c(-c2ccc(O)cc2)[nH]c2nccnc12       80
13          O=C(c1ccccc1)c1ccc(N2CCOCC2)cc1O       91
14  Nc1nccc(-c2c(-c3ccc(F)cc3)ncn2C2CCNCC2)n1      120
15       CCCCc1c(-c2ccc(OC)cc2)[nH]c2nccnc12       81
16  CC(C)(C)c1nc2c3ccc(F)cc3c3c(=O)[nH]ccc3c2[nH]1        1
17    CC(C)N(CCC(=O)c1ccc2ccccc2c1)Cc1ccccc1       78
18  Nc1ncnc2c1c(-c1ccc(Oc3ccccc3)cc1)cn2C1CCCC1       91
19  O=C(Nc1nc2ccccc2n1CCN1CCOCC1)c1cccc([N+](=O)[O-])c1       85
20  NCCNc1ncc(C(N)=O)c(Nc2cccc(C(F)(F)F)c2)n1      116
21  O=C1C(Cl)=C(N2C(=O)CCC2=O)C(=O)c2ccccc21      100
22  Cn1c2ccccc2c2c3c(c4c5ccccc5n(CCC#N)c4c21)CNC3=O        1

###

Assay System: Tyrosine-protein kinase receptor TYRO3 (Homo sapiens) (UniProt Q06418)
Sequence (whole entry): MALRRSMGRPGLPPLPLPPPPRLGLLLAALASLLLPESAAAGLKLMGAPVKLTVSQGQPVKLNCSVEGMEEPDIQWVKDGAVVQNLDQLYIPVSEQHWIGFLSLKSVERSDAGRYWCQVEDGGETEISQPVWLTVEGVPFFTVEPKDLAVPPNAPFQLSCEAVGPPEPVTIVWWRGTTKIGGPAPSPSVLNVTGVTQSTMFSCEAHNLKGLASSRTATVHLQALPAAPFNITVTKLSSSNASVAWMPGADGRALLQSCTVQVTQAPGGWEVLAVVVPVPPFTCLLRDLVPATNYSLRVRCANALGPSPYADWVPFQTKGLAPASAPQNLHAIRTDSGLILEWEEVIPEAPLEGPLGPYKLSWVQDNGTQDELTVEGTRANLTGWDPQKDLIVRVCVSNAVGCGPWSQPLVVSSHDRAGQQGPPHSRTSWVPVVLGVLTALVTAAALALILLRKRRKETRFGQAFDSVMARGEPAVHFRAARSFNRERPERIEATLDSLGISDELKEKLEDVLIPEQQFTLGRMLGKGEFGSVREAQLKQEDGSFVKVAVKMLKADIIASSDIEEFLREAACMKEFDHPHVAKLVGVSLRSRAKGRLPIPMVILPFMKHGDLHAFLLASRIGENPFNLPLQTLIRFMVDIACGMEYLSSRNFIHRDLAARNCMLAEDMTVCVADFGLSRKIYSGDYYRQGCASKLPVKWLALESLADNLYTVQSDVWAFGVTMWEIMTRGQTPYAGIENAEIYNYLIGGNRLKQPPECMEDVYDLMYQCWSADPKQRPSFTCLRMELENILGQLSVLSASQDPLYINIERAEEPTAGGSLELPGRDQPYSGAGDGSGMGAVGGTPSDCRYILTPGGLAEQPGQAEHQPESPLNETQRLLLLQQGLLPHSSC
Conditions: at 10 µM
# residual activity listing for each entry below
Reported Property: residual activity (%)

> print(dat)
                            molecule.smiles  unit  reading
1  COc1cc2c(cc1OC)-c1n[nH]c(Nc3cccc(F)c3)c1C2     %       50
2         COc1cc2ncnc(Nc3cccc(Cl)c3)c2cc1OC     %       15
3  COc1ccc2c(c1)c(C1=C(c3c[nH]c4ccccc34)C(=O)NC1=O)cn2CCCN(C)C     %       76
4                   Nc1n[nH]c2nc3ccccc3nc12     %      100
5    O=C1Cc2c([nH]c3ccc(Br)cc23)-c2ccccc2N1     %       83
6  COc1cc2nccc(Oc3ccc(NC(=S)NC(=O)c4ccccc4C)cc3)c2cc1OC     %       18

###

# residual activity listing for each entry below
Assay System: Ephrin type-A receptor 8 (Homo sapiens) (UniProt P29322)
Sequence (P29322 whole entry): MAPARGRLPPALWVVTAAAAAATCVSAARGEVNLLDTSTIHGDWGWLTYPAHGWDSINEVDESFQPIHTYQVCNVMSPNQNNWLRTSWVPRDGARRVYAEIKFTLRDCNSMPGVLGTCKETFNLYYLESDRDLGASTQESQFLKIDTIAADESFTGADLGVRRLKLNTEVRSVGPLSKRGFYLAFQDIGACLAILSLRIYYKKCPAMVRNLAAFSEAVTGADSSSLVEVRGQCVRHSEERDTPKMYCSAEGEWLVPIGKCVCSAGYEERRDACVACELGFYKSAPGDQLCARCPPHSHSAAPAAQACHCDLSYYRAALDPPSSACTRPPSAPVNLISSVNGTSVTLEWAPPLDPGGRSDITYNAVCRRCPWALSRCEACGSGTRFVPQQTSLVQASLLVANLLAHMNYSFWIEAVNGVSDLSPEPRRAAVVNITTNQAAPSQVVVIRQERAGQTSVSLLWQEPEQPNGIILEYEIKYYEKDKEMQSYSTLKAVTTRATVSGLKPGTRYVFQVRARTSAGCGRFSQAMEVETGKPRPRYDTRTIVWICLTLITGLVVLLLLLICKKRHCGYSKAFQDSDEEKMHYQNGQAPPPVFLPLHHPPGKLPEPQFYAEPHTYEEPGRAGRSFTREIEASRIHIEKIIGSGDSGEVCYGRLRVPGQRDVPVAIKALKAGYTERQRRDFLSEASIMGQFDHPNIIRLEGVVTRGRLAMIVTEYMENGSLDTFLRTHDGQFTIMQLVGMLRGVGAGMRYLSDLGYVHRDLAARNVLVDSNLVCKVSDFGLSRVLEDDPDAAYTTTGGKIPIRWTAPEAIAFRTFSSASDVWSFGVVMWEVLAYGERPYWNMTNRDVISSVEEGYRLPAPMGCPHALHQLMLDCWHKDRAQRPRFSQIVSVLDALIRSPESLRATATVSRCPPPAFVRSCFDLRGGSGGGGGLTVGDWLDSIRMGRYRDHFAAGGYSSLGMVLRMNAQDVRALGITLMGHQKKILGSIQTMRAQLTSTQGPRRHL
Conditions: at 1 µM
Reported Property: residual activity (%)

> print(dat)
                             molecule.smiles  unit  reading
 1     O=c1cc(N2CCNCC2)oc2c(-c3ccccc3)cccc12     %      102
 2  O=C1C(Cl)=C(N2C(=O)CCC2=O)C(=O)c2ccccc21     %       96
 3         COc1cc2ncnc(Nc3cccc(Cl)c3)c2cc1OC     %       85
 4                 Cn1sc(=O)n(Cc2ccccc2)c1=O     %       87
 5  O=C1Nc2ccc(Cl)cc2/C1=C/c1cc(Cl)c(O)c(Cl)c1     %       90
 6  CN(C)S(=O)(=O)c1ccc2c(c1)/C(=C/c1cc3c([nH]1)CCCC3)C(=O)N2     %       96
 7  O=C1NC(=O)C(c2cn(CCCO)c3ncccc23)=C1c1cnccn1     %       99
 8  COc1cc2nccc(Oc3ccc(NC(=S)NC(=O)c4ccccc4C)cc3)c2cc1OC     %       75
 9       Fc1ccc(-c2nc3n(c2-c2ccncc2)CCS3)cc1     %       97
10  COc1cc2c(cc1OC)-c1n[nH]c(Nc3cccc(F)c3)c1C2     %       69
11          O=c1cc(N2CCOCC2)oc2c1ccc1ccccc12     %      100
12  CC(C)[C@H](CO)Nc1nc(Nc2cc(N)cc(Cl)c2)c2ncn(C(C)C)c2n1     %       93

###

Assay System: Serine/threonine-protein kinase PAK 2 (Homo sapiens) (UniProt Q13177)
Sequence (Q13177 whole entry): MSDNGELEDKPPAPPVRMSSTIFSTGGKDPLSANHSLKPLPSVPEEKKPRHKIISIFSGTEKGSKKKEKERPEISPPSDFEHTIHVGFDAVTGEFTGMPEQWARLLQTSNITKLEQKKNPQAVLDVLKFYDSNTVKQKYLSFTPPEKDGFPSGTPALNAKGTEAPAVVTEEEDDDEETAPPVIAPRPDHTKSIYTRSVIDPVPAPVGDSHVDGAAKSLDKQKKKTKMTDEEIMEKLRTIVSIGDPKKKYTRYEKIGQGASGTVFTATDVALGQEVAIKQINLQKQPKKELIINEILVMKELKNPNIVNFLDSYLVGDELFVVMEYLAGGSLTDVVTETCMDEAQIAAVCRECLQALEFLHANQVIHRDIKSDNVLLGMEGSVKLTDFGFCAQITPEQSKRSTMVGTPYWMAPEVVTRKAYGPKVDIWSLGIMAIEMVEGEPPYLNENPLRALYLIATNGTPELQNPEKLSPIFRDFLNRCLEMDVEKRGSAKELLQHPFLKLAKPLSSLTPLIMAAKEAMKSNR
Conditions: at 1 µM
# residual activity listing for each entry below
Reported Property: residual activity (%)

> print(dat)
                             molecule.smiles  unit  reading
 1    O=C1Cc2c([nH]c3ccc(Br)cc23)-c2ccccc2N1     %       91
 2         COc1cc2ncnc(Nc3cccc(Cl)c3)c2cc1OC     %      126
 3         O=C(O)/C=C/c1cc(Br)c(Br)c(Br)c1Br     %       97
 4  O=C1C(Cl)=C(N2C(=O)CCC2=O)C(=O)c2ccccc21     %      101
 5  O=C1NC(=O)C(c2cn(CCCn3ccnc3)c3ccccc23)=C1Nc1ccccc1     %      107
 6  CCCC(=O)Oc1ccc2[nH]c(C(=O)c3cc4ccccc4[nH]3)cc2c1     %      102
 7  CC(C)(C)n1nc(Cc2cccc3ccccc23)c2c(N)ncnc21     %       98
 8  Nc1ncnc2c1c(-c1ccc(Oc3ccccc3)cc1)cn2C1CCCC1     %       98
 9  O=C(CCCc1ccc(-c2ccccc2F)cc1)Nc1ccc(O)cc1     %      106
10        NC(=O)Nc1sc(-c2ccc(F)cc2)cc1C(N)=O     %       93
11          O=c1cc(N2CCOCC2)oc2c1ccc1ccccc12     %       97

###

Assay System: Vascular endothelial growth factor receptor 2 (Homo sapiens)
Conditions: at 10 µM
Reported Property: residual activity (%)

> print(dat)
                                    compound  reading
 1  O=S(=O)(NCCNC/C=C/c1ccc(Br)cc1)c1cccc2cnccc12       62
 2      COc1ccc(-c2cnc3c(-c4ccsc4)cnn3c2)cc1       68
 3     O=c1cc(N2CCNCC2)oc2c(-c3ccccc3)cccc12       89
 4  CSc1nc(-c2ccc(F)cc2)c(-c2ccnc(NC(C)c3ccccc3)c2)[nH]1 (stereo unspecified)       87
 5  O=C(CCCc1ccc(-c2ccccc2F)cc1)Nc1ccc(O)cc1      108
 6  O=C(NC(NC(=S)Nc1ccc(F)c([N+](=O)[O-])c1)C(Cl)(Cl)Cl)C(c1ccccc1)c1ccccc1 (stereo unspecified)      102
 7     Cc1cc(C)c(/C=C2\C(=O)Nc3ccccc32)[nH]1        2
 8    CC(C)N(CCC(=O)c1ccc2ccccc2c1)Cc1ccccc1       85
 9   N#C/C(=C\c1ccc(O)c(O)c1)C(=O)NCc1ccccc1       87
10  NCCNc1ncc(C(N)=O)c(Nc2cccc(C(F)(F)F)c2)n1       78
11  O=C(c1cc2cc(O)ccc2[nH]1)c1cc2cc(O)ccc2[nH]1        3
12  NC(=O)c1cccc(-c2cc(Nc3ccc(OC(F)(F)F)cc3)ncn2)c1       89
13  O=C1Cc2c([nH]c3ccc([N+](=O)[O-])cc23)-c2ccccc2N1       42
14  COc1cc2nccc(Oc3ccc(NC(=S)NC(=O)c4ccccc4C)cc3)c2cc1OC        3
15   O=C1Nc2ccccc2/C1=C\c1c(Cl)[nH]c2ccccc12       30
16    N#Cc1c(NC(=O)c2cccc3ccccc23)sc2c1CCCC2       96
17  COc1ccc2c(c1)c(C1=C(c3c[nH]c4ccccc34)C(=O)NC1=O)cn2CCCN(C)C        3
18    O=C1NC(=O)c2c1c1c3ccccc3[nH]c1n1cncc21        8
19           Nc1ncnc2[nH]nc(Nc3ccc(F)cc3)c12       54
20  O=C1Nc2ccc(Cl)cc2/C1=C/c1cc(Cl)c(O)c(Cl)c1        1
21  Nc1ncnc2c1c(-c1ccc(Oc3ccccc3)cc1)cn2C1CCCC1        3
22         O=C(O)/C=C/c1cc(Br)c(Br)c(Br)c1Br       81
23       CCCCc1c(-c2ccc(OC)cc2)[nH]c2nccnc12       68
24  CC(C)c1nn(-c2c(Cl)cccc2Cl)c2nc(Cc3ccc(OCCO)cc3)[nH]c(=O)c12       89
25  CN(C)S(=O)(=O)c1ccc2c(c1)/C(=C/c1cc3c([nH]1)CCCC3)C(=O)N2       40
26                 Cn1sc(=O)n(Cc2ccccc2)c1=O       91
27  Nc1nc(Nc2ccc(S(N)(=O)=O)cc2)nn1C(=O)c1c(F)cccc1F        4
28  O=C1NC(=O)C(c2c[nH]c3ccccc23)=C1c1c[nH]c2ccccc12        2
29  CCCC(=O)Oc1ccc2[nH]c(C(=O)c3cc4ccccc4[nH]3)cc2c1       70
30      O=C(Nc1ccc(Cl)cc1)c1ccccc1NCc1ccncc1        4
31  O=c1c(-c2ccc(F)cc2)c(-c2ccncc2)[nH]n1-c1ccc(Cl)cc1       54
